Biological target: T1, NHERF3_1, Q5T2W1
T1 sequence (Q5T2W1 4-100, limits assumed, looked up): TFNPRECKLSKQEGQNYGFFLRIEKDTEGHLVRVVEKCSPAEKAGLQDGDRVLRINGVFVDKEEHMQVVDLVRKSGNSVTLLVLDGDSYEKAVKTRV
Experiment: holdup assay
Design: key: below the threshold = too weak to quantify, mostly under pKd 3.1 to 4
Conditions: plain residues with an end cap or a label only (N-terminal biotin on a linker: ahx)
Threshold rule: pKd greater than or equal to 5 is TRUE; below that, FALSE.

Q: Can QNTDDVQTSF [ACE2, Q9BYF1] be said to have pKd at or above 5?
A: FALSE

Q: Given QPRTWLQSPV [RTKN, Q9BST9] , state whether its pKd is at least 5.
A: FALSE

Q: Check this binder for pKd at or above 5: TQKFRASTAL [FRMPD1, Q5SYB0]
A: TRUE

These measurements were taken from paper PMC9482650.
